From: patent US20100068208A1

TARGET OF ASSAY: T1, TGR12-GFP (fused protein of human TGR12 and GFP, encoded by the DNA of SEQ ID NO: 31), stably expressed on … (human, UniProt Q96LB1 1-330)
T1 sequence: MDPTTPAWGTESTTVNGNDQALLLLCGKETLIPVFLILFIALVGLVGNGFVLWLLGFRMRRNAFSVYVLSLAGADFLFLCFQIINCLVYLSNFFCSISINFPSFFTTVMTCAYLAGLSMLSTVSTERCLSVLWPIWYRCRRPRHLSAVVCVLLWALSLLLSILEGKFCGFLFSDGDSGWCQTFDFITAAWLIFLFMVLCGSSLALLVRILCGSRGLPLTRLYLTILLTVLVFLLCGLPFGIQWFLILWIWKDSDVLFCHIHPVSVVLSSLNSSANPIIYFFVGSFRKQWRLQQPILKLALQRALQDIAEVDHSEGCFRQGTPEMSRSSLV
EXPERIMENT: cell-based or functional assay
Where no end group is shown, it is not given here.
TEST READOUT: maximum activity in the calcium increasing effect (FLIPR), CHO-TGR12, at 0.3 nM (fluorescence intensity)
Please give a number only; it is taken to be in fluorescence intensity.

• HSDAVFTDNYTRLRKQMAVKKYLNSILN (peptide, UniProt P01282 125-152, looked up, not fully specified; ends and bridges not checked, domain: VIP; also called vasoactive intestinal peptide) [human VIP (vasoactive intestinal polypeptide)] = 56
• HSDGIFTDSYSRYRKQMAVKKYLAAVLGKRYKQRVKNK (peptide, UniProt P18509 132-169, looked up, not fully specified; ends and bridges not checked, domain: PACAP-38) [human PACAP38 (pituitary adenylate cyclase activating polypeptide 38)] = 287
• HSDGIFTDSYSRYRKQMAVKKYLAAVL (peptide, UniProt P18509 132-158, looked up, not fully specified; ends and bridges not checked, domain: PACAP-27) [human PACAP27 (pituitary adenylate cyclase activating polypeptide 27)] = 48

Prompt: // lookup maximum activity in the calcium increasing effect (FLIPR), CHO-TGR12, at 0.3 nM for DRMPCRNFFWKTFSSCK (peptide, UniProt O00230 89-105, looked up, not fully specified; ends and bridges not checked) [human cortistatin-17]
Completion: 67
